Catalogue of compounds with associated viability, T/C
Tested on: 695427-040-R-J1-PDC complex spheroids, viability percent T/C
Experiment: Anticancer human tumor 695427-040-R-J1-PDC patient-derived colon adenocarcinoma cell line growth inhibition [GQUAD]
Conditions: second compound 0.1 µM; first compound 0.1 µM; hits give low values
Express it in %; write the number only.

Compound	viability, T/C [%]
COc1ncnc(C2CC2)c1-c1ncc2cnn(Cc3ccc(-c4nc(C(F)(F)F)cn4C(C)C)cc3)c2n1 + CN(C)c1ccc(Nc2c3ccc(NC(=O)CCN4CCCC4)cc3nc3cc(NC(=O)CCN4CCCC4)ccc23)cc1	95.4
C=CCn1c(=O)c2cnc(Nc3ccc(N4CCN(C)CC4)cc3)nc2n1-c1cccc(C(C)(C)O)n1 + CN(C)c1ccc(Nc2c3ccc(NC(=O)CCN4CCCC4)cc3nc3cc(NC(=O)CCN4CCCC4)ccc23)cc1	93.9

Would you kindly look at the next entry?
Task item: I have this compound here, CC1COCCN1c1cc(C2(S(C)(=N)=O)CC2)nc(-c2ccnc3[nH]ccc23)n1 (stereo not drawn) + Cc1cnc(CNC(=O)c2c(=O)c3ccc(N4CCCN(C)CC4)nc3n3c2sc2ccccc23)cn1 , and I need its recorded viability, T/C.
Reply: 79.1

----------
Tested on: 695427-040-R-J1-PDC complex spheroids, viability percent T/C
Experiment: Anticancer human tumor 695427-040-R-J1-PDC cell line growth inhibition [GQUAD];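 further: spheroids exposed to compounds for seven days before readout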
Conditions: second compound 0.316 µM; first compound 1 µM; hits give low values
Catalogue of compounds with associated viability, T/C
Express it in %; write the number only.

Example entries begin here.
Compound	Result unit	viability, T/C
CCCS(=O)(=O)Nc1ccc(F)c(C(=O)c2c[nH]c3ncc(-c4ccc(Cl)cc4)cc23)c1F + CN(C)c1ccc(Nc2c3ccc(NC(=O)CCN4CCCC4)cc3nc3cc(NC(=O)CCN4CCCC4)ccc23)cc1	%	106
O=c1[nH]cc(F)c(=O)[nH]1 + CN(C)c1ccc(Nc2c3ccc(NC(=O)CCN4CCCC4)cc3nc3cc(NC(=O)CCN4CCCC4)ccc23)cc1	%	92.8
CC1COCCN1c1cc(C2(O)CC3CCC(C2)O3)c2cnn(-c3ccn[nH]3)c2n1 (stereo not given) + CN(C)c1ccc(Nc2c3ccc(NC(=O)CCN4CCCC4)cc3nc3cc(NC(=O)CCN4CCCC4)ccc23)cc1	%	57.4
CC(C)n1c(=O)n(C)c2cnc3cc(F)c(-c4ccc(OCCCN5CCCCC5)nc4)cc3c21 + Cc1cnc(CNC(=O)c2c(=O)c3ccc(N4CCCN(C)CC4)nc3n3c2sc2ccccc23)cn1	%	71.6

Task item: Param readout= viability, T/C; system= 695427-040-R-J1-PDC complex spheroids, viability percent T/C; entry= COc1ncnc(C2CC2)c1-c1ncc2cnn(Cc3ccc(-c4nc(C(F)(F)F)cn4C(C)C)cc3)c2n1 + Cc1[nH]c2ccc(F)cc2c1-c1nc2c3cccnc3c3ncccc3c2[nH]1 ; returns value.
Reply: 106

----------
Catalogue of compounds with associated viability, T/C
Test system: 695427-040-R-J1-PDC complex spheroids, viability percent T/C
Experiment: Anticancer human tumor 695427-040-R-J1-PDC cell line growth inhibition [GQUAD];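 further: spheroids exposed to compounds for seven days before readout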
Conditions: second compound 0.1 µM; first compound 0.1 µM; hits give low values
Express it in %; write the number only.

Example entries begin here.
Compound	Result unit	viability, T/C
COc1ccc([C@@H](O)c2cc(-c3ncnc4cc(N5CCOCC5)ccc34)c(F)cc2Cl)nn1 + Cc1cnc(CNC(=O)c2c(=O)c3ccc(N4CCCN(C)CC4)nc3n3c2sc2ccccc23)cn1	%	103
Cc1cccc(N(C)C(=O)C2C(O)CCN2c2nc(C)cc(C(F)(F)F)c2C#N)c1 (stereo unspecified) + Cc1cnc(CNC(=O)c2c(=O)c3ccc(N4CCCN(C)CC4)nc3n3c2sc2ccccc23)cn1	%	80
Nc1ccn(C2OC(CO)C(O)C2(F)F)c(=O)n1 (stereo unspecified) + Cc1[nH]c2ccc(F)cc2c1-c1nc2c3cccnc3c3ncccc3c2[nH]1	%	75.1
COc1cc(C2c3cc4c(cc3C(OC3OC5COC(C)OC5C(O)C3O)C3COC(=O)C23)OCO4)cc(OC)c1O (stereo unspecified) + Cc1[nH]c2ccc(F)cc2c1-c1nc2c3cccnc3c3ncccc3c2[nH]1	%	92.6
COc1cc(C2c3cc4c(cc3C(OC3OC5COC(C)OC5C(O)C3O)C3COC(=O)C23)OCO4)cc(OC)c1O (stereo unspecified) + Cc1cnc(CNC(=O)c2c(=O)c3ccc(N4CCCN(C)CC4)nc3n3c2sc2ccccc23)cn1	%	79.2

Task item: I have this compound here, CC(=O)O[C@H]1C(=O)[C@@]2(C)[C@H]([C@H](OC(=O)c3ccccc3)[C@]3(O)C[C@H](OC(=O)[C@H](O)[C@@H](NC(=O)c4ccccc4)c4ccccc4)C(C)=C1C3(C)C)[C@]1(OC(C)=O)CO[C@@H]1C[C@@H]2O + Cc1[nH]c2ccc(F)cc2c1-c1nc2c3cccnc3c3ncccc3c2[nH]1 , and I need its recorded viability, T/C.
Reply: 97.7

Task item: I have this compound here, CC(C)(O)C1CCC(Nc2ccc3ncc(-c4cccc(C(F)(F)F)c4)n3n2)CC1 (stereo unspecified) + Cc1cnc(CNC(=O)c2c(=O)c3ccc(N4CCCN(C)CC4)nc3n3c2sc2ccccc23)cn1 , and I need its recorded viability, T/C.
Reply: 61.3

Task item: I have this compound here, CC(C)(O)C1CCC(Nc2ccc3ncc(-c4cccc(C(F)(F)F)c4)n3n2)CC1 (stereo unspecified) + Cc1[nH]c2ccc(F)cc2c1-c1nc2c3cccnc3c3ncccc3c2[nH]1 , and I need its recorded viability, T/C.
Reply: 100

Task item: I have this compound here, COc1ccc([C@@H](O)c2cc(-c3ncnc4cc(N5CCOCC5)ccc34)c(F)cc2Cl)nn1 + CN(C)c1ccc(Nc2c3ccc(NC(=O)CCN4CCCC4)cc3nc3cc(NC(=O)CCN4CCCC4)ccc23)cc1 , and I need its recorded viability, T/C.
Reply: 101

Task item: I have this compound here, CC1COCCN1c1cc(-c2ccnn2C)c2ccnc(-c3ccn[nH]3)c2n1 (stereo unspecified) + Cc1cnc(CNC(=O)c2c(=O)c3ccc(N4CCCN(C)CC4)nc3n3c2sc2ccccc23)cn1 , and I need its recorded viability, T/C.
Reply: 44.5

Task item: I have this compound here, C=CCn1c(=O)c2cnc(Nc3ccc(N4CCN(C)CC4)cc3)nc2n1-c1cccc(C(C)(C)O)n1 + Cc1[nH]c2ccc(F)cc2c1-c1nc2c3cccnc3c3ncccc3c2[nH]1 , and I need its recorded viability, T/C.
Reply: 99.8

----------
Test system: 695427-040-R-J1-PDC complex spheroids, viability percent T/C
Experiment: Anticancer human tumor 695427-040-R-J1-PDC cell line growth inhibition [GQUAD];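 further: spheroids exposed to compounds for seven days before readout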
Settings: second compound 0.0316 µM; first compound 3.16 µM; hits give low values
Attribute measured: viability, T/C (%)
Express it in %; write the number only.

Compound	viability, T/C (%)
COc1ccc([C@@H](O)c2cc(-c3ncnc4cc(N5CCOCC5)ccc34)c(F)cc2Cl)nn1 + Cc1cnc(CNC(=O)c2c(=O)c3ccc(N4CCCN(C)CC4)nc3n3c2sc2ccccc23)cn1	53.1
COc1ncnc(C2CC2)c1-c1ncc2cnn(Cc3ccc(-c4nc(C(F)(F)F)cn4C(C)C)cc3)c2n1 + Cc1cnc(CNC(=O)c2c(=O)c3ccc(N4CCCN(C)CC4)nc3n3c2sc2ccccc23)cn1	83.7
COc1ncnc(C2CC2)c1-c1ncc2cnn(Cc3ccc(-c4nc(C(F)(F)F)cn4C(C)C)cc3)c2n1 + Cc1[nH]c2ccc(F)cc2c1-c1nc2c3cccnc3c3ncccc3c2[nH]1	112
CC(C)(O)C1CCC(Nc2ccc3ncc(-c4cccc(C(F)(F)F)c4)n3n2)CC1 (configuration not stated) + CN(C)c1ccc(Nc2c3ccc(NC(=O)CCN4CCCC4)cc3nc3cc(NC(=O)CCN4CCCC4)ccc23)cc1	15.2
CC1COCCN1c1cc(-c2ccnn2C)c2ccnc(-c3ccn[nH]3)c2n1 (configuration not stated) + Cc1cnc(CNC(=O)c2c(=O)c3ccc(N4CCCN(C)CC4)nc3n3c2sc2ccccc23)cn1	28.1
CC1COCCN1c1cc(C2(S(C)(=N)=O)CC2)nc(-c2ccnc3[nH]ccc23)n1 (configuration not stated) + Cc1[nH]c2ccc(F)cc2c1-c1nc2c3cccnc3c3ncccc3c2[nH]1	76.9

Would you kindly look at the next entry?
Task item: I have this compound here, CC(C)n1c(=O)n(C)c2cnc3cc(F)c(-c4ccc(OCCCN5CCCCC5)nc4)cc3c21 + Cc1[nH]c2ccc(F)cc2c1-c1nc2c3cccnc3c3ncccc3c2[nH]1 , and I need its recorded viability, T/C.
Reply: 93.5

----------
Catalogue of molecules with associated viability, T/C
Test system: 695427-040-R-J1-PDC complex spheroids, viability percent T/C
Assay: Anticancer human tumor 695427-040-R-J1-PDC cell line growth inhibition [GQUAD];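 further: spheroids exposed to compounds for seven days before readout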
Details: second compound 0.1 µM; first compound 1 µM; hits give low values
Express it in %; write the number only.

Molecule	Attribute measured	Result unit	Endpoint value
CCCS(=O)(=O)Nc1ccc(F)c(C(=O)c2c[nH]c3ncc(-c4ccc(Cl)cc4)cc23)c1F + Cc1[nH]c2ccc(F)cc2c1-c1nc2c3cccnc3c3ncccc3c2[nH]1	viability, T/C	%	77.6

Task item: I have this molecule here, CC1COCCN1c1cc(-c2ccnn2C)c2ccnc(-c3ccn[nH]3)c2n1 (stereo not drawn) + Cc1[nH]c2ccc(F)cc2c1-c1nc2c3cccnc3c3ncccc3c2[nH]1 , and I need its recorded viability, T/C.
Reply: 30.3

Task item: I have this molecule here, O=c1[nH]cc(F)c(=O)[nH]1 + Cc1[nH]c2ccc(F)cc2c1-c1nc2c3cccnc3c3ncccc3c2[nH]1 , and I need its recorded viability, T/C.
Reply: 82.2
